assay: PAMPA (parallel artificial membrane permeability assay); format: in vitro ADME; conditions: PAMPA; membrane permeation rate (Pe); 50 mM MOPSO buffer pH 6.5 with 5.0% glycocholic acid, 37° C., 18 hours; read-out: iPAMPA Pe
Starred links: 1 amine or outer side, 2 acyl side, 3 side chain; linkers in the order of their positions; H or OH if unused. Positions of bridges follow the written chain, without caps; N, C: chain ends. Non-standard residues stand in square brackets, D forms with d. Residues, ends and D or L forms follow the SMILES beside them. *: point of attachment. Phe(4-(CH2)5CO) = O=C([C@H](Cc1ccc(CCCCCC(=O)[*:3])cc1)N[*:1])[*:2]; Ala(1H-tetrazol-5-yl) = N[C@@H](Cc1nnn[nH]1)C(=O)O; NMeF = CN[C@@H](Cc1ccccc1)C(=O)O; NMeI = CC[C@H](C)[C@H](NC)C(=O)O; NMeβAla = CN(CCC(=O)[*:2])[*:1]; NMeL = CN[C@@H](CC(C)C)C(=O)O; NMeV = CN[C@H](C(=O)O)C(C)C; Piperidide = C1CCN(*)CC1; Sar = CNCC(=O)O
Assign Papp at 18 hours, 50 µM to each entry below.
Numbers only, in ×10⁻⁶ cm/s.

Known Papp at 18 hours, 50 µM results, listed for orientation:
- CC(C)C[C@@H]1NC(=O)[C@H](CC(C)C)N(C)C(=O)CCN(C)C(=O)C[C@@H](C(=O)N(C)[C@@H](Cc2ccccc2)C(=O)N[C@@H](C)C(=O)N2CCCCC2)NC(=O)[C@H]([C@@H](C)O)NC(=O)[C@H](CC(C)C)N(C)C(=O)[C@H](Cc2ccccc2)NC(=O)[C@H](Cc2ccccc2)N(C)C(=O)[C@H](CC(C)C)N(C)C1=O [DP-461] ([NMeβAla][NMeL]L[NMeL][NMeF]F[NMeL]TD[NMeF]A-Piperidide; lactam N-9): 33
- CC[C@H](C)[C@H]1C(=O)N[C@H](C(=O)N2CCCCC2)CC(=O)N[C@H](C)C(=O)N[C@@H]([C@@H](C)O)C(=O)N(C)[C@@H](Cc2ccccc2)C(=O)N[C@@H](CC(C)C)C(=O)N2CCC[C@H]2C(=O)N(C)[C@@H](C(C)C)C(=O)N[C@@H](Cc2ccccc2)C(=O)N(C)CC(=O)N(C)[C@@H](CC(C)C)C(=O)N[C@@H](C)C(=O)N1C [DP-215] ([dA]T[NMeF]LP[NMeV]F[Sar][NMeL]A[NMeI]D-Piperidide; lactam N-12): 24
- CC(C)C[C@H]1NC(=O)[C@H](Cc2ccccc2)N(C)C(=O)[C@H](CC(C)C)N(C)C(=O)[C@H](C)NC(=O)[C@H](CC(C)C)N(C)C(=O)[C@H](Cc2ccccc2)N(C)C(=O)[C@H](Cc2nn[nH]n2)NC(=O)C[C@@H](C(=O)N2CCCCC2)NC(=O)[C@H](CC(C)C)N(C)C(=O)[C@H](CC(C)C)N(C)C1=O [DP-909] ([Ala(1H-tetrazol-5-yl)][NMeF][NMeL]A[NMeL][NMeF][dL][NMeL][NMeL]D-Piperidide; lactam N-10): 12
- CC[C@H](C)[C@H]1C(=O)N[C@@H](C)C(=O)N(C)[C@@H](Cc2ccccc2)C(=O)N[C@@H]([C@@H](C)O)C(=O)N(C)[C@@H](CC(C)C)C(=O)N[C@@H](Cc2ccccc2)C(=O)N(C)[C@@H](C(C)C)C(=O)N[C@H](C(=O)N2CCCCC2)Cc2ccc(cc2)CCCCCC(=O)NCC(=O)N(C)[C@@H](CC(C)C)C(=O)N1C [DP-865] (G[NMeL][NMeI]A[NMeF]T[NMeL]F[NMeV][Phe(4-(CH2)5CO)]-Piperidide; lactam N-10): 15

API: the following record is the query input.
Input: Need Papp at 18 hours, 50 µM of CC(C)C[C@@H]1NC(=O)CN(C)C(=O)[C@H](CC(C)C)N(C)C(=O)[C@H]([C@@H](C)O)NC(=O)[C@H](CC(C)C)N(C)C(=O)[C@H](Cc2ccccc2)N(C)C(=O)[C@H](C(C)C)NC(=O)C[C@@H](C(=O)N2CCCCC2)NC1=O [DP-691] (V[NMeF][NMeL]T[NMeL][Sar]LD-Piperidide; lactam N-8) , thanks.
Output: 33

* * *

So I've got a bunch of molecules here, and I need their Papp at 18 hours, 50 µM values.
experiment: PAMPA (parallel artificial membrane permeability assay); format: in vitro ADME; conditions: PAMPA; membrane permeation rate (Pe); 50 mM MOPSO buffer pH 6.5 with 5.0% glycocholic acid, 37° C., 18 hours; read-out: iPAMPA Pe
Starred links: 1 amine or outer side, 2 acyl side, 3 side chain; linkers in the order of their positions; H or OH if unused. Positions of bridges follow the written chain, without caps; N, C: chain ends. Non-standard residues stand in square brackets, D forms with d. Residues, ends and D or L forms follow the SMILES beside them. *: point of attachment. Phe(3-(CH2)4CO) = O=C([C@H](Cc1cccc(CCCCC(=O)[*:3])c1)N[*:1])[*:2]; NMeF = CN[C@@H](Cc1ccccc1)C(=O)O; NMeI = CC[C@H](C)[C@H](NC)C(=O)O; NMeL = CN[C@@H](CC(C)C)C(=O)O; NMeV = CN[C@H](C(=O)O)C(C)C; Piperidide = C1CCN(*)CC1; dNMeA = CN[C@H](C)C(=O)O
Give bare numbers, in ×10⁻⁶ cm/s.

- CC[C@H](C)[C@H]1C(=O)N[C@@H](Cc2ccccc2)C(=O)N(C)[C@@H](Cc2ccccc2)C(=O)N[C@@H]([C@@H](C)O)C(=O)N2CCC[C@H]2C(=O)N[C@@H](CC(C)C)C(=O)N[C@H](C(=O)N2CCCCC2)Cc2cccc(c2)CCCCC(=O)NCC(=O)N(C)[C@@H](C(C)C)C(=O)N(C)[C@@H](CC(C)C)C(=O)N[C@@H](C)C(=O)N1C [DP-885] (G[NMeV][NMeL]A[NMeI]F[NMeF]TPL[Phe(3-(CH2)4CO)]-Piperidide; lactam N-11): 30

As a next step, examine the molecule that follows.
Input: // returns reported Papp at 18 hours, 50 µM for input CC(C)C[C@H]1C(=O)N(C)[C@@H](CC(C)C)C(=O)N[C@@H]([C@@H](C)O)C(=O)N(C)[C@@H](Cc2ccccc2)C(=O)N(C)[C@@H](CC(C)C)C(=O)N[C@H](C(=O)N(C)[C@@H](Cc2ccccc2)C(=O)N(C)[C@@H](Cc2ccccc2)C(=O)N[C@@H](C)C(=O)N2CCCCC2)CC(=O)N(C)[C@H](C)C(=O)N(C)[C@@H](Cc2ccccc2)C(=O)N(C)[C@@H](CC(C)C)C(=O)N[C@@H](C)C(=O)N1C [DP-207] ([dNMeA][NMeF][NMeL]A[NMeL][NMeL]T[NMeF][NMeL]D[NMeF][NMeF]A-Piperidide; lactam N-10)
Output: 0.16

* * *

assay: PAMPA (parallel artificial membrane permeability assay); format: in vitro ADME; conditions: PAMPA; membrane permeation rate (Pe); 50 mM MOPSO buffer pH 6.5 with 5.0% glycocholic acid, 37° C., 18 hours; read-out: iPAMPA Pe
Positions of bridges follow the written chain, without caps; N, C: chain ends. Non-standard residues stand in square brackets, D forms with d. Residues, ends and D or L forms follow the SMILES beside them. *: point of attachment. NMeF = CN[C@@H](Cc1ccccc1)C(=O)O; NMeL = CN[C@@H](CC(C)C)C(=O)O; NMeA = CN[C@@H](C)C(=O)O; Piperidide = C1CCN(*)CC1; Sar = CNCC(=O)O
reported-endpoint: Papp at 18 hours, 50 µM (×10⁻⁶ cm/s)
Numbers only, in ×10⁻⁶ cm/s.

* CC(C)C[C@H]1C(=O)N[C@H](C(=O)N(C)[C@@H](Cc2ccccc2)C(=O)N(C)[C@@H](Cc2ccccc2)C(=O)N[C@@H](C)C(=O)N2CCCCC2)CC(=O)N[C@H](C)C(=O)N(C)[C@@H](C)C(=O)N(C)[C@@H](Cc2ccccc2)C(=O)N(C)[C@@H](CC(C)C)C(=O)N[C@@H]([C@@H](C)O)C(=O)N(C)[C@@H](C)C(=O)N(C)[C@@H](CC(C)C)C(=O)N[C@@H](C(C)C)C(=O)N1C [DP-204] ([dA][NMeA][NMeF][NMeL]T[NMeA][NMeL]V[NMeL]D[NMeF][NMeF]A-Piperidide; lactam N-10) | 22

--- query ---
Input: # query: Papp at 18 hours, 50 µM of entry CC(C)C[C@@H]1NC(=O)[C@H](C(C)C)NC(=O)C[C@@H](C(=O)N2CCCCC2)NC(=O)[C@H]([C@@H](C)O)NC(=O)CN(C)C(=O)[C@H](CC(C)C)N(C)C(=O)[C@H](CC(C)C)N(C)C1=O [DP-727] (VL[NMeL][NMeL][Sar]TD-Piperidide; lactam N-7)
Output: 16
